These entries and their values trace back to patent US9617260B2.

# TARGET SYSTEM: Bruton's Tyrosine Kinase (BTK), inactivated state (Homo sapiens (Human), UniProt Q06187)
# Sequence (Q06187 whole entry): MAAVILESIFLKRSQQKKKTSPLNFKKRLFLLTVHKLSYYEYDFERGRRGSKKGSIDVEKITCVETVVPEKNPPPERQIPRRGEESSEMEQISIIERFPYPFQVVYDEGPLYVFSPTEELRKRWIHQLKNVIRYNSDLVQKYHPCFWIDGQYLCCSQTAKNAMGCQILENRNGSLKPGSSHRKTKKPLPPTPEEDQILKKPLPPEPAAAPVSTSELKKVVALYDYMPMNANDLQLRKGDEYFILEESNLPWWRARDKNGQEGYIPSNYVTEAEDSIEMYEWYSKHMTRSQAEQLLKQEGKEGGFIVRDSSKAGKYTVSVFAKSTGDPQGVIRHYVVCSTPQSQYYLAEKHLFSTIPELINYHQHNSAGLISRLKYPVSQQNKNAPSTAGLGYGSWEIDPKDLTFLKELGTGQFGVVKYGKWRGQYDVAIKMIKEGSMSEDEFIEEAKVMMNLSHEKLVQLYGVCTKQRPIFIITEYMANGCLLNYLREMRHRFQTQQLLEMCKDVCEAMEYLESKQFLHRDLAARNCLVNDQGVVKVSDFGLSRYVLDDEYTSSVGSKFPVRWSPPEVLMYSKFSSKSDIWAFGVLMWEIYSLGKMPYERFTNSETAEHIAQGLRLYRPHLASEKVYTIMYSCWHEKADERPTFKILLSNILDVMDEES
# TEST SUMMARY: Bruton's Tyrosine Kinase (BTK) Inhibition TR-FRET (Time Resolved FRET) competition assay
# ASSAY CONDITIONS: competition with Kinase Tracer 178 for BTK-Eu; plates incubated 18-24 h at 14° C.
// thresholds for IC50 classes: bottom: < 30 nM; middle: ≥ 30 nM and < 200 nM; top: ≥ 200 nM

Worked set:
[
  {
    "CPD SMILES": "CC(=O)C(=O)N1CC=C(c2c[nH]c3ncc(NC(=O)OCc4cccc(F)c4)cc23)CC1",
    "QUALITATIVE LABEL": "top"
  },
  {
    "CPD SMILES": "C=C(C(=O)Nc1cccc(-c2c[nH]c3ncc(NC(=O)OCc4ccccc4)cc23)c1)C(F)(F)F",
    "QUALITATIVE LABEL": "middle"
  },
  {
    "CPD SMILES": "COCCC(=O)N(C)c1cccc(-c2c[nH]c3ncc(NC(=O)OC(C)C)cc23)c1",
    "QUALITATIVE LABEL": "top"
  },
  {
    "CPD SMILES": "CC(C)CC(=O)C(=O)Nc1cccc(-c2c[nH]c3ncc(NC(=O)OCc4ccccc4)cc23)c1",
    "QUALITATIVE LABEL": "top"
  },
  {
    "CPD SMILES": "C=CC(=O)Nc1cccc(-c2c[nH]c3ncc(NC(=O)OCc4ccccc4)cc23)c1",
    "QUALITATIVE LABEL": "bottom"
  },
  {
    "CPD SMILES": "N#CC1(C(=O)Nc2cccc(-c3c[nH]c4ncc(NC(=O)OCc5ccccc5)cc34)c2)CC1",
    "QUALITATIVE LABEL": "top"
  },
  {
    "CPD SMILES": "C=CC(=O)N1CC(O)(c2c[nH]c3ncc(NC(=O)OCc4ccccc4)cc23)C1",
    "QUALITATIVE LABEL": "bottom"
  },
  {
    "CPD SMILES": "CC(C)(C)C(=O)C(=O)Nc1cccc(-c2c[nH]c3ncc(NC(=O)OCc4ccccc4)cc23)c1",
    "QUALITATIVE LABEL": "middle"
  },
  {
    "CPD SMILES": "CCC(=O)C(=O)Nc1cccc(-c2c[nH]c3ncc(NC(=O)OCc4ccccc4)cc23)c1",
    "QUALITATIVE LABEL": "bottom"
  },
  {
    "CPD SMILES": "C=CC(=O)N1CC=C(c2c[nH]c3ncc(NC(=O)OCc4ccccc4)cc23)CC1",
    "QUALITATIVE LABEL": "bottom"
  }
]

Which IC50 band matches CC(C)OC(=O)Nc1cnc2[nH]cc(-c3cccc(NC(=O)/C=C/CN(C)C)c3)c2c1 ?
bottom

Determine which band this molecule sits in: O=C(Nc1cnc2[nH]cc(-c3cccc(NC(=O)C(=O)c4ccccc4)c3)c2c1)OCc1ccccc1
top

Looking at CCC(=O)C(=O)Nc1cccc(-c2c[nH]c3ncc(NC(=O)OCc4cccc(C#N)c4)cc23)c1 , which class would you pick?
middle

Band of CC(=O)C(=O)Nc1cccc(-c2c[nH]c3ncc(NC(=O)OCc4cccc(F)c4)cc23)c1 ?
middle
